target: human MC4R (Homo sapiens, UniProt P32245); assay: Intracellular cAMP levels in live cells, MC3R selectivity relative to MC4R; format: cell-based; conditions: cAMP assays in human MC3R and human MC4R stable cell lines
Sequence (P32245 whole entry): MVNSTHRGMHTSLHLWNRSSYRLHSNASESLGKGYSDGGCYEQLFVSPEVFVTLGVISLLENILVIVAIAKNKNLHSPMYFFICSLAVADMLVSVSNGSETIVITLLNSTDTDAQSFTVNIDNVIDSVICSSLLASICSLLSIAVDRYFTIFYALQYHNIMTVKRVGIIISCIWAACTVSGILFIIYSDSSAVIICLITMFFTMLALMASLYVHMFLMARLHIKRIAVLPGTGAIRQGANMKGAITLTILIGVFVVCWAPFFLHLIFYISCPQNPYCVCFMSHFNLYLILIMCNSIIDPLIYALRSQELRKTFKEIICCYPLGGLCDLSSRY
Non-standard residues stand in square brackets, D forms with d. Residues, ends and D or L forms follow the SMILES beside them.
Quantity kind: MC3R selectivity (relative to MC4R)

Request: Recall the recorded MC3R selectivity (relative to MC4R) for CSCC[C@H](NC(=O)[C@@H](NC(=O)[C@@H](N)Cc1ccc(O)cc1)C(C)C)C(=O)NCC(=O)N[C@@H](CCCNC(=N)N)C(=O)N[C@@H](Cc1ccccc1)C(=O)N[C@@H](CCCNC(=N)N)C(=O)N[C@H](Cc1c[nH]c2ccccc12)C(=O)N[C@@H](CC(=O)O)C(=O)N[C@@H](CCCNC(=N)N)C(=O)N[C@@H](Cc1ccccc1)C(=O)NCC(=O)O [CTX-1548] (H-YVMGRFR[dW]DRFG-OH) with human MC4R (Homo sapiens, UniProt P32245) and state it.
Result: 267

Request: And CC(C)[C@H](NC(=O)[C@@H](N)Cc1ccc(O)cc1)C(=O)N[C@@H](CCC(=O)O)C(=O)N[C@H](C)C(=O)N[C@@H](Cc1c[nH]cn1)C(=O)N[C@H](Cc1ccccc1)C(=O)N[C@@H](CCCNC(=N)N)C(=O)N[C@H](Cc1c[nH]c2ccccc12)C(=O)N[C@@H](CC(=O)O)C(=O)N[C@@H](CCCNC(=N)N)C(=O)N[C@@H](Cc1ccccc1)C(=O)NCC(=O)O [CTX-1106] (H-YVE[dA]H[dF]R[dW]DRFG-OH) ?
Result: 120

These entries and their values trace back to patent US20240287154A1.
